Taken from ChEMBL document CHEMBL1201862.

Test system: HOP-92
Experiment: NCI tumour cell line growth inhibition, 48 h
Calls of active or inactive are those of the source. No stated cut-off is given here; in the data, active = GI50 up to about 1.1 µM and inactive = higher.
Result category, one only: label 1 = active, label 0 = inactive

Request: Could you please tell me the result logged for CC1CCC2(OC1)OC1CC3C4CCC5CC(O)CCC5(C)C4CC(=O)OC3(C)C1C2C (stereo not given) in this assay?
Response: label 0

Request: Could you please tell me the result logged for "O=[N+]([O-])c1ccc2c(c1)/C(=N/N=C1c3ccccc3Cc3ccccc31)c1cc([N+](=O)[O-])cc([N+](=O)[O-])c1-2" in this assay?
Response: label 0

Request: Could you please tell me the result logged for Nc1ncnc2c(C3OC(CO)C(O)C3O)n[nH]c12 (stereo not given) in this assay?
Response: label 1

Request: Could you please tell me the result logged for "Cc1ccc(NC(=O)c2ccccc2C(=O)O)cc1C" in this assay?
Response: label 0

Request: Could you please tell me the result logged for "O=C1c2c(Br)sc(Br)c2[C@H]2NC(=S)O[C@@H]12" in this assay?
Response: label 0

----------
Tested on: SF-539
Assay: NCI tumour cell line growth inhibition, 48 h
Activity calls are given as the source filed them. Cut-off read from the data, not from the text of the source: active = GI50 up to about 1.1 µM and inactive = higher.
Result category, one only: active, inactive

Request: Could you please tell me the result logged for "Cc1cccc2nc(-c3ccccc3)cc(=O)n12" in this assay?
Response: inactive

Request: Could you please tell me the result logged for "C=CCn1c(-c2ccccc2)cs/c1=N\C(P(=O)(O)O)P(=O)(O)O" in this assay?
Response: inactive

Request: Could you please tell me the result logged for "C=CC(=O)N1C/C(=C\c2ccc(Cl)c(Cl)c2)C(=O)/C(=C/c2ccc(Cl)c(Cl)c2)C1" in this assay?
Response: active

Request: Could you please tell me the result logged for "COc1ccc(/C=N/NC(=O)c2sc(=S)n(-c3ccccc3)c2N)cc1" in this assay?
Response: inactive

Request: Could you please tell me the result logged for "CC(C)(C)C(C#N)(C#N)c1ccc(C(C#N)(C#N)C(C)(C)C)nn1" in this assay?
Response: inactive

Request: Could you please tell me the result logged for "c1ccc2cc3c(cc2c1)nc1ccccn13" in this assay?
Response: inactive

Request: Could you please tell me the result logged for O=C1CSC(c2ccccc2)N1c1nc2cc3sc(N4C(=O)CSC4c4ccccc4)nc3cc2s1 (configuration not stated) in this assay?
Response: inactive

----------
Test system: SK-MEL-5
Assay: NCI tumour cell line growth inhibition, 48 h
Activity calls are given as the source filed them. No stated cut-off is given here; in the data, active = GI50 up to about 1.1 µM and inactive = higher.
So I've got a bunch of compounds here, and I need their GI50 values.

Request: For the compound shown here, "CCN(C)c1nc(N(C)CC)c2nc(N(C)CC)nc(N(C)CC)c2n1" , give the reported GI50.
Response: > 100 µM (inactive)

Request: For the compound shown here, NC1=NC(c2ccccc2)CC(c2cc(Cl)cc(Br)c2O)=N1 (configuration not stated) , give the reported GI50.
Response: 11.7 µM (inactive)

Request: For the compound shown here, COC(=O)C1OC(SCCN)C(O)C(O)C1O (configuration not stated) , give the reported GI50.
Response: > 100 µM (inactive)

Request: For the compound shown here, "CCC/C(Cl)=N/OC(=O)Nc1cc(C(F)(F)F)ccc1OC" , give the reported GI50.
Response: 7.93 µM (inactive)

Request: For the compound shown here, "c1ccc(/N=C(/Nc2ccccc2)N2CCCCC2)cc1" , give the reported GI50.
Response: > 10 µM (inactive)

Request: For the compound shown here, "COc1ccc2c(C)cc(N/N=C/c3ccc(OC)c4ccccc34)nc2c1" , give the reported GI50.
Response: 16.4 µM (inactive)

Request: For the compound shown here, "C/C(=N/NC(=S)Nc1ccccc1C)c1ccccn1" , give the reported GI50.
Response: 0.0766 µM (active)

Request: For the compound shown here, "CCN(CCN(CC)C(=O)Nc1ccccc1)C(=O)Nc1ccccc1" , give the reported GI50.
Response: > 100 µM (inactive)

Request: For the compound shown here, COc1cc(C2c3cc4c(cc3OC(N3CCCC3)C2C)OCO4)cc(OC)c1O (configuration not stated) , give the reported GI50.
Response: 4.9 µM (inactive)

Request: For the compound shown here, "O=[N+]([O-])c1cc(C(F)(F)F)cc([N+](=O)[O-])c1CCl" , give the reported GI50.
Response: 0.456 µM (active)

Request: For the compound shown here, "COc1ccc(N2C(=O)CC(=O)N(C(=O)COc3ccc(OCC(=O)N4C(=O)CC(=O)N(c5ccc(OC)cc5)C4=S)cc3)C2=S)cc1" , give the reported GI50.
Response: 36.8 µM (inactive)

Request: For the compound shown here, NC(CCCNc1ccc(O)cc1)C(=O)O (configuration not stated) , give the reported GI50.
Response: 25.8 µM (inactive)

Request: For the compound shown here, "O=[N+]([O-])c1ccc2c(c1)=[N+]([O-])C1(CCCCC1)[N+]=2[O-]" , give the reported GI50.
Response: 15 µM (inactive)

Request: For the compound shown here, O=C1OC(CC(=O)c2ccc(F)cc2)C(Cl)=C1Cl (configuration not stated) , give the reported GI50.
Response: 25.5 µM (inactive)

Request: For the compound shown here, CCOC(=O)C1CCCc2sc(N)c(C#N)c21 (configuration not stated) , give the reported GI50.
Response: > 100 µM (inactive)

Request: For the compound shown here, C/N=C1\OC2=C3C(c4ccccc4)(O/C(=N/C)N(C)C3(c3ccccc3)OC2=O)N1C (configuration not stated) , give the reported GI50.
Response: > 100 µM (inactive)

Request: For the compound shown here, "CN(C)c1ccc(C(=C(c2ccc(N(C)C)cc2)c2ccc(N(C)C)cc2)c2ccc(N(C)C)cc2)cc1" , give the reported GI50.
Response: 16.3 µM (inactive)

Request: For the compound shown here, "COc1ccc2c(c1OC)C(=O)c1cnccc1C2=O" , give the reported GI50.
Response: > 100 µM (inactive)

Request: For the compound shown here, COC(=O)[C@]1(c2cc3ccccc3[nH]2)CC2CN(CC(=O)N(C)OC)C1CC2(OC)OC (some centres not stated) , give the reported GI50.
Response: 40.6 µM (inactive)

Request: For the compound shown here, "COc1ccc2c(=O)c(-c3cc4c(cc3OC)OCO4)coc2c1" , give the reported GI50.
Response: > 100 µM (inactive)

Request: For the compound shown here, "c1ccc2cc3c(cc2c1)nc1ccccn13" , give the reported GI50.
Response: > 100 µM (inactive)

Request: For the compound shown here, "CC1=C(C(=O)N[C@@H](CC(C)C)C(=O)O)N2C(=O)[C@@H](NC(=O)[C@@H](N)Cc3ccccc3)[C@H]2SC1" , give the reported GI50.
Response: > 100 µM (inactive)

Request: For the compound shown here, "O=C1c2c(Br)sc(Br)c2[C@H]2NC(=S)O[C@@H]12" , give the reported GI50.
Response: 15.8 µM (inactive)

Request: For the compound shown here, C=C1CC(C)(COc2ccc3c(C)c(Cl)c(=O)oc3c2)OC1=O (configuration not stated) , give the reported GI50.
Response: 1.43 µM (inactive)

Request: For the compound shown here, O=C1NC(Cc2c[nH]c3ccccc23)C(=O)N2C(c3ccccc3)c3[nH]c4ccccc4c3C[C@@H]12 (some centres not stated) , give the reported GI50.
Response: 17.5 µM (inactive)

Request: For the compound shown here, Cc1cc2ncn(C3CCCO3)c2cc1C (configuration not stated) , give the reported GI50.
Response: > 100 µM (inactive)

Request: For the compound shown here, "N/C(=N\Nc1ccc(S(N)(=O)=O)cc1)c1cnccn1" , give the reported GI50.
Response: > 100 µM (inactive)

Request: For the compound shown here, "N=C(NC(=N)Nc1ccc(S(=O)(=O)Nc2cnc3ccccc3n2)cc1)Nc1ccc(Br)cc1" , give the reported GI50.
Response: > 100 µM (inactive)

Request: For the compound shown here, Fc1cccc(Cl)c1C1SCc2nc3ccccc3n21 (configuration not stated) , give the reported GI50.
Response: 15.4 µM (inactive)

Request: For the compound shown here, C[C@]12CCc3nonc3C1CC[C@@H]1C2CC[C@]2(C)C(=O)CCC12 (some centres not stated) , give the reported GI50.
Response: 17.5 µM (inactive)

Request: For the compound shown here, "[O-][n+]1c2cc3c(cc2[n+]([O-])c2c(O)cccc21)CN(CCN1CCOCC1)C3" , give the reported GI50.
Response: 56 µM (inactive)

Request: For the compound shown here, "C=CC(=O)N1C/C(=C\c2ccc(Cl)c(Cl)c2)C(=O)/C(=C/c2ccc(Cl)c(Cl)c2)C1" , give the reported GI50.
Response: 0.478 µM (active)

Request: For the compound shown here, "C=CCOC(=O)c1c(C)[n+]([O-])c2cc(Cl)c(Cl)cc2[n+]1[O-]" , give the reported GI50.
Response: 19 µM (inactive)

Request: For the compound shown here, "COc1ccc2[nH]c3c([N+](=O)[O-])ccc(NCCN(C)C)c3/c(=N/CCN(C)C)c2c1" , give the reported GI50.
Response: 1.86 µM (inactive)

Request: For the compound shown here, Cc1cc2nn(C3CCCCO3)nc2cc1C (configuration not stated) , give the reported GI50.
Response: > 100 µM (inactive)

Request: For the compound shown here, "C[C@]12CC[C@H]3[C@@H](CCC4=C/C(=N/OCCN5CCCCC5)CC[C@@]43C)[C@@H]1CC[C@@H]2O" , give the reported GI50.
Response: 8.63 µM (inactive)

Request: For the compound shown here, "CCC(=O)COc1ccc(NC(NC(=O)C(C(F)(F)F)C(F)(F)F)(C(F)(F)F)C(F)(F)F)cc1" , give the reported GI50.
Response: 42.3 µM (inactive)

Request: For the compound shown here, Cc1ccc(C)c(NC(=O)/C(=N\NC(N)=S)C(C#N)c2ccccc2)c1 (configuration not stated) , give the reported GI50.
Response: > 100 µM (inactive)

Request: For the compound shown here, O=C(c1ccccc1)c1c(CC(O)c2ccncc2)n(C(=O)c2ccccc2)c2ccccc12 (configuration not stated) , give the reported GI50.
Response: 16.1 µM (inactive)

Request: For the compound shown here, COc1ccc(C2(C3c4cc(OC)c(OC)cc4CCN3C)SCCCS2)cc1O (configuration not stated) , give the reported GI50.
Response: > 100 µM (inactive)

Request: For the compound shown here, "CCCCc1ccc(Nc2nc(S)c3ncn(COCCO)c3n2)cc1" , give the reported GI50.
Response: 62.1 µM (inactive)

Request: For the compound shown here, c1ccc(COC2C3COC(O3)C(OCc3ccccc3)C2OCc2ccccc2)cc1 (configuration not stated) , give the reported GI50.
Response: 34.4 µM (inactive)
